target: LepB Δ2-76 His-SUMO (Escherichia coli) (UniProt P00803); test: SPR; LepB Δ2-76 His-SUMO amine-coupled (EDC/NHS) to a CDH chip, Pioneer FE; OneStep method with 75% of the loop; peptides flowed at 50 μM, 50 μL/min, 180 s dissociation; regeneration with Tris-EDTA; triplicate
EXPERIMENTAL_READOUT: koff (s⁻¹)

{"BINDER": "TWAAFN [peptide 07]", "MEASURED_VALUE": 0.321}
{"BINDER": "AAFE [peptide 11]", "MEASURED_VALUE": 0.442}
{"BINDER": "GGTWAAFNDV [peptide 03]", "MEASURED_VALUE": 0.947}
{"BINDER": "TWAAIE [peptide 08]", "MEASURED_VALUE": 0.00239}
{"BINDER": "VGGGTWAAFETL [peptide 02]", "MEASURED_VALUE": 0.0147}
{"BINDER": "GGGTWAAIE [peptide 06]", "MEASURED_VALUE": 0.0208}
{"BINDER": "VGGGTWAAIEEGKL [peptide 04]", "MEASURED_VALUE": 0.17}
{"BINDER": "GGGTWAAFEEGK [peptide 01]", "MEASURED_VALUE": 0.0434}
